Where do the numbers come from? From patent US20030148956A1.

In this section we review reported CRF2R EC50 values for a set of binders.
- MEASURED TARGET: T1, CRF2R
- T1 sequence (Q13324 whole entry, species assumed, looked up): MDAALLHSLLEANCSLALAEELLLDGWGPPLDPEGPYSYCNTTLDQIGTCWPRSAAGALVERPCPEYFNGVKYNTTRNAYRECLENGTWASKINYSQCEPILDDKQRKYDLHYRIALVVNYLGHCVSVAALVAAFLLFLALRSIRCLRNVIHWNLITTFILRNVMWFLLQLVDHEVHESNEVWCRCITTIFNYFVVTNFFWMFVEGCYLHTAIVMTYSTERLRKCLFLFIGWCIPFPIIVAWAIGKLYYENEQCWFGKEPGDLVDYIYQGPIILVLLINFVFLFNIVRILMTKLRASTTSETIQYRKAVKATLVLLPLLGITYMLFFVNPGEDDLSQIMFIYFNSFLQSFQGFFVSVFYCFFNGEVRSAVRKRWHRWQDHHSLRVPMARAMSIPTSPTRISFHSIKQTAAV
- PROCEDURE TEXT: cell-based or functional assay
Ends that are not written are not given here.
RECORDED ENDPOINT: CRF2R EC50 (nM)

[[record]]
binder = "DNPSLSIDLPFQLLRTLLELARTQSQRERAEQNAIIFASV-NH2 [SEQ ID NO 182]"
measurement_unit = "nM"
result_number = 7.21

[[record]]
binder = "SQEPPISLDLPLQLLREVLEMTKADQLAQQAHSNRKLLDIA-NH2 [SEQ ID NO 95]"
measurement_unit = "nM"
result_number = 100

[[record]]
binder = "ZGPPISIDLPFQLLRKMIEIEKQEKEKQQATTNARLLDTV (C-terminal amide) [SEQ ID NO 20]"
measurement_unit = "nM"
result_number = 7.81

